Where these numbers come from: patent US20250034269A1

- TESTED TARGET: human LTBR on cells (human, UniProt P36941 31-435)
- METHOD SUMMARY: cell-based or functional assay
In this section we review reported NFκB luc, 937.5 ng/ml, w/o x linker values for a set of binders.
Record the value in RLU, omitting the unit from your answer.

IN: Look up NFκB luc, 937.5 ng/ml, w/o x linker for this binder: P1AE9457 (antibody, human IgG1, kappa, L234A L235A, V domains shown, human IgG1 PG LALA; from transgenic rabbit immunization; also called LTBR (9457)) VH: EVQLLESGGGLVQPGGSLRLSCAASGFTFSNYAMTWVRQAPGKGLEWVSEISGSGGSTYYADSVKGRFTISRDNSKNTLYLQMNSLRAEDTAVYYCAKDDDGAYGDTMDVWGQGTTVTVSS VL: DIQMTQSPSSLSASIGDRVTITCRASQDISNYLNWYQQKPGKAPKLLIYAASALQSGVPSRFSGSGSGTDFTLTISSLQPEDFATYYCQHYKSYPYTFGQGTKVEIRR
OUT: 14900

IN: If you can, please state the reported NFκB luc, 937.5 ng/ml, w/o x linker value of P1AE9452 (antibody, human IgG1, kappa, L234A L235A, V domains shown, human IgG1 PG LALA; from transgenic rabbit immunization; also called LTBR (9452)) VH: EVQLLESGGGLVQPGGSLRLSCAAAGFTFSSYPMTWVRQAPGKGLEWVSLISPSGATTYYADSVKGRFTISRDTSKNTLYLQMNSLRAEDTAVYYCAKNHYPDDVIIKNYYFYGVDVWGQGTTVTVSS VL: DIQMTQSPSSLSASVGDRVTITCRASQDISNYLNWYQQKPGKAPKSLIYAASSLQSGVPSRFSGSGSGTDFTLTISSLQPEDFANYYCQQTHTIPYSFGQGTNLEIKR .
OUT: 15700

IN: Requested read-out: NFκB luc, 937.5 ng/ml, w/o x linker. Entry: P1AF0064 (antibody, human IgG1, kappa, L234A L235A, V domains shown, human IgG1 PG LALA constant regions; V domains from rat immunization; also called LTBR (0064)) VH: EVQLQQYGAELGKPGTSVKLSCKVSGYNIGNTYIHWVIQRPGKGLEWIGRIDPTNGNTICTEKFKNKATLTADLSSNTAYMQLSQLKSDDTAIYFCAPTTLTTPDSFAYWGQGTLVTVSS VL: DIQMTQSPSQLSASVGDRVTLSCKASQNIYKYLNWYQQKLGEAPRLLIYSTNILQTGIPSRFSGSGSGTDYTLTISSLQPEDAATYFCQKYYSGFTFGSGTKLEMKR
OUT: 24500
